Tested on: kochia (Kochia scoparia)
Test: Test B pre-/postemergence plant response
Type: in vivo
Conditions: Postemergence, 62 g ai/ha; scale 0 to 100, 0 no effect, 100 complete control
Would you kindly list Plant response rating, Kochia for each of these molecules?

The recorded Plant response rating, Kochia for Cc1nn(C)c(=O)c(-n2nc(-c3ccc(C(F)(F)F)cc3)cc2C)c1O is 0

The recorded Plant response rating, Kochia for Cc1cc(-c2ccc(Cl)cc2)nn1-c1c(OC(=S)N(C)C)cnn(C)c1=O is 98

The recorded Plant response rating, Kochia for CCc1cc(-c2ccc(Cl)cc2)nn1-c1c(OC(=O)OC(C)C)cnn(C)c1=O is 0

The recorded Plant response rating, Kochia for CCc1cc(-c2ccc(Cl)cc2)nn1-c1c(OS(C)(=O)=O)cnn(C)c1=O is 0

The recorded Plant response rating, Kochia for CCc1cc(-c2ccc(Br)cc2)nn1-c1c(O)cnn(C)c1=O is 45

The recorded Plant response rating, Kochia for Cn1ncc(O)c(-c2nn(-c3ccc(Cl)cc3)cc2Cl)c1=O is 0

---

Would you kindly list Plant response rating, Windgrass for each of these compounds?
Test system: windgrass (Apera spica-venti)
Assay: Test B postemergence plant response
Format: in vivo
Conditions: Postemergence, 62 g ai/ha; scale 0 to 100, 0 no effect, 100 complete control
Returns: the value as a bare number; no unit string appended.

The recorded Plant response rating, Windgrass for COCc1cc(-c2ccc(Br)cc2)nn1-c1c(O)cnn(C)c1=O is 35

The recorded Plant response rating, Windgrass for Cn1ncc(O)c(-c2nn(-c3ccc(Cl)cc3)cc2Cl)c1=O is 85

The recorded Plant response rating, Windgrass for Cc1nn(C)c(=O)c(-n2nc(-c3ccc(C(F)(F)F)cc3)cc2C)c1O is 90

The recorded Plant response rating, Windgrass for Cc1cc(-c2ccc(Cl)cc2)nn1-c1c(OC(=S)N(C)C)cnn(C)c1=O is 40

---

System: barnyardgrass (Echinochloa crus-galli)
Test: Test B flooded paddy test plant response
Format: in vivo
Conditions: Echinochloa crus-galli; Flood (flooded paddy test), 62 g ai/ha; scale 0 to 100, 0 no effect, 100 complete control; read-out: Plant response rating, Barnyardgrass
MEASUREMENT_NAME: pest or weed control at 62 g/ha (%)
Numeric answer only, unit % assumed.

The recorded pest or weed control at 62 g/ha for CCc1cc(-c2ccc(C(F)(F)F)cc2)nn1-c1c(O)cnn(C)c1=O is 50

The recorded pest or weed control at 62 g/ha for Cc1cc(-c2ccc(C(F)(F)F)cc2)nn1-c1c(O)cnn(C)c1=O is 0

The recorded pest or weed control at 62 g/ha for Cc1nn(C)c(=O)c(-n2nc(-c3ccc(C(F)(F)F)cc3)cc2C)c1O is 0

The recorded pest or weed control at 62 g/ha for CCc1c(C)c(-c2ccc(Cl)cc2)nn1-c1c(O)cnn(C)c1=O is 0

---

Would you kindly list Surinam Grass plant response rating for each of these molecules?
Tested on: surinam grass (Brachiaria decumbens)
Test: Test B pre-/postemergence plant response
Type: in vivo
Conditions: 8 g ai/ha, postemergence; 0-100 scale
Returns: the value as a bare number; no unit string appended.

The recorded Surinam Grass plant response rating for CCc1cc(-c2ccc(Cl)cc2)nn1-c1c(OC(=O)OC(C)C)cnn(C)c1=O is 100

The recorded Surinam Grass plant response rating for Cc1cc(-c2ccc(Br)cc2)nn1-c1c(O)cn[nH]c1=O is 98

The recorded Surinam Grass plant response rating for CCc1cc(-c2ccc(Cl)cc2)nn1-c1c(OS(C)(=O)=O)cnn(C)c1=O is 100

The recorded Surinam Grass plant response rating for Cc1cc(-c2ccc(Br)cc2)nn1-c1c(OC(=O)C2CC2)cnn(C(=O)C2CC2)c1=O is 95

The recorded Surinam Grass plant response rating for CCc1cc(-c2ccc(F)cc2)nn1-c1c(O)cnn(C)c1=O is 50
